All figures here come from patent US12448423.

measurement.target: T1, HIS-tagged human NKG2D (human, UniProt P26718 73-216, limits assumed)
T1 construct: Captured on HIS1K biosensors; not shown: HIS tag
T1 sequence (looked up): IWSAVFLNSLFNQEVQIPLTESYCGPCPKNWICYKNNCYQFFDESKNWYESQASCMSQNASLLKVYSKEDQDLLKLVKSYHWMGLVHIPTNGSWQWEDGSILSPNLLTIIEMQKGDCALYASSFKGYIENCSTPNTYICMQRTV
assay.name: Octet (BLI): His-tagged human NKG2D captured on HIS1K biosensors, dipped into 100 nM bivalent mAb
This listing pairs binders with measured kon.
Reply numerically in M⁻¹ s⁻¹, unit not repeated.

{"binder": "XENP27597 (antibody, human IgG1, lambda, V domains shown, bivalent anti-NKG2D mAb, IgG1 with ablation variants; also called KYK-1.0[NKG2D]_H1L1_IgG1_PVA_/S267K) VH: EVQLVESGGGVVQPGGSLRLSCAASGFTFSSYGMHWVRQAPGKGLEWVAFIRYDGSNKYYADSVKGRFTISRDNSKNTKYLQMNSLRAEDTAVYYCAKDRFGYYLDYWGQGTLVTVSS VL: QPVLTQPSSVSVAPGETARIPCGGDDIETKSVHWYQQKPGQAPVLVIYDDDDRPSGIPERFFGSNSGNTATLSISRVEAGDEADYYCQVWDDNNDEWVFGGGTQLTVLG", "kon, M⁻¹ s⁻¹": "1.85e+06"}

API: the following record is the query input.
Enquiry: Return kon for the following binder: XENP27602 (antibody, human IgG1, kappa, V domains shown, humanized bivalent anti-NKG2D mAb, IgG1 with ablation variants; also called mAb B[NKG2D]_H2_L1.1_IgG1_PVA_/S267K) VH: EVQLVQSGAEVKKPGESLRISCKASGYTFTSYWMNWVRQMPGKGLEWMGRIDPYDSETHYNPSFQGHVTISVDKSISTAYLQWSSLKASDTAMYYCAKMGDYSFDYWGQGTLVTVSS VL: DIQLTQSPSSLSASVGDRVTITCRASGNIHNYLAWYQQKPGKSPKVLVYNAKTLADGVPSRFSGSGSGTDYTLTISSLQPEDFATYYCQHFWSTPWTFGGGTKVEIKR
Return: 740000
